procedure-summary: Quantitative High-Throughput drug screen in 47 multiple myeloma cell lines against the NCATS MIPE library collection: SKMM1_PLB cell viability assay (AID 1919863); further: series mostly up to about 46 µM; nearly all actives have a fitted effect of over 35% in size
measurement-context: SKMM1 myeloma viability, CellTiter-Glo ATP, 48 h; hits give low values
Description: PI: Beverly A. Mock Ph.D. Laboratory of Cancer Biology and Genetics, Center for Cancer Research, National Cancer Institute, National Institute of Health, Bethesda, Maryland […] 5; Detector; 425V; Luminescence; Viewlux PerkinElmer. […] 1. […] Briefly, the corresponding myeloma cell lines were screened in 1,536-well plates with 500 cells, 5-uL per well for inhibition of cell viability (assessed by measuring ATP levels with CellTiterGlo). […]
Records with an inconclusive call do not appear.
measured-property: viability (%)

> print(dat)
                                    compound  measured.property  numeric.result
 1  CC1=C(C(=O)O)N2C(=O)[C@@H](NC(=O)C(N)c3ccccc3)[C@H]2SC1 (stereo partly drawn)          viability             130
 2  O=C(O)CSCC(=O)NC1CCSC1=O (stereo not drawn)          viability             130
 3  CCC(=O)O[C@]1(C(=O)CCl)[C@@H](C)C[C@H]2[C@@H]3CCC4=CC(=O)C=C[C@]4(C)[C@@]3(F)[C@@H](O)C[C@@]21C          viability             109
 4                             O=S(=O)(O)CCS          viability             136
 5  CNC1CCCN(c2c(F)cc3c(=O)c(C(=O)O)cn(C4CC4)c3c2OC)C1 (stereo not drawn)          viability             118
 6  O=C(N[C@H](CO)[C@H](O)c1ccc([N+](=O)[O-])cc1)C(Cl)Cl          viability             115
 7  CN(C)CCc1c[nH]c2ccc(CS(=O)(=O)N3CCCC3)cc12          viability             119
 8  N[C@@H](C(=O)N[C@@H]1C(=O)N2C(C(=O)O)=C(Cl)CS[C@H]12)c1ccccc1          viability             123
 9  CCn1cc(C(=O)O)c(=O)c2cc(F)c(N3CCNCC3)nc21          viability             102
10                    S=P(N1CC1)(N1CC1)N1CC1          viability             142
11           Cc1cc(NS(=O)(=O)c2ccc(N)cc2)no1          viability             140
12  CC1(C)[C@H](C(=O)O)N2C(=O)C[C@H]2S1(=O)=O          viability             120
13                            NC(=O)c1cccnc1          viability             105
14             Nc1nc(N)nc(-c2cc(Cl)ccc2Cl)n1          viability             131
15  COc1nc(N)nc2c1ncn2[C@@H]1O[C@H](CO)[C@@H](O)[C@@H]1O          viability             124
16     COc1cc(NS(=O)(=O)c2ccc(N)cc2)nc(OC)n1          viability             133
17  O=C(NCC1CN(c2ccc(N3CCOCC3=O)cc2)C(=O)O1)c1ccc(Cl)s1 (stereo not drawn)          viability             135
18  C[C@@H](NCCCc1cccc(C(F)(F)F)c1)c1cccc2ccccc12          viability             110
19  CC(C)NCC(O)c1ccc(NS(C)(=O)=O)cc1 (stereo not drawn)          viability             159
20  COc1ccc(-c2ccc3cc(C(=O)O)ccc3c2)cc1C12CC3CC(CC(C3)C1)C2          viability             119
21     CNS(=O)(=O)Cc1ccc2[nH]cc(CCN(C)C)c2c1          viability             112
22  NS(=O)(=O)c1cc2c(cc1Cl)NC(C(Cl)Cl)NS2(=O)=O (stereo not drawn)          viability             112
23            CCCOc1ccc(C(=O)OCCN(CC)CC)cc1N          viability             118
